Target: HLA-A*02:01 (Homo sapiens, UniProt P04439, D140Y/D185E/D98H/E176V/E277Q/G131W/G231S/I119V/I121R/I166T/I218V/L300P/L318F/N151K/N90K/P208A/P217A/Q86G/Q94H/R138H/R169H/T345S)
Experiment: MHC binding assay (UV-ligand exchange, ELISA, peptide exchange yield)
Settings: binding of HLA-class I restricted peptides to HLA-A*02:01
reported_property: Peptide exchange (MHC class I binding score, peptide exchange yield)

Some solved cases for reference:
621 (VLMDRLPSLL; listed as Homo sapiens) [compound 621] = ″++++″ (≥75% = ++++)
1 (SLMEPPAVLLL; listed as Homo sapiens) [compound 1] = ″+++″ (≥50% = +++)
563 (WLLPYNGVTV; listed as Homo sapiens) [compound 563] = ″+++″ (≥50% = +++)
519 (GLLHLTLLL; listed as Homo sapiens) [compound 519] = ″+++″ (≥50% = +++)
100 (YLLSTNAQL; listed as Homo sapiens) [compound 100] = ″++++″ (≥75% = ++++)

// 569 (KLVDRTWTL; listed as Homo sapiens) [compound 569] : Peptide exchange (MHC class I binding score, peptide exchange yield) value = ″+++″ (≥50% = +++)

The substance listed as 430 (HLYSSIEHLTT; listed as Homo sapiens) [compound 430] has a reported Peptide exchange (MHC class I binding score, peptide exchange yield) of ″+++″ (≥50% = +++)

Record 334 (TLTKVLVAL; listed as Homo sapiens) [compound 334] . Reported Peptide exchange (MHC class I binding score, peptide exchange yield): ″+++″ (≥50% = +++)

Query 397 (YLFGERLLEC; listed as Homo sapiens) [compound 397] yields Peptide exchange (MHC class I binding score, peptide exchange yield) of ″+++″ (≥50% = +++)

The substance 607 (RLYSGISGLEL; listed as Homo sapiens) [compound 607] showed Peptide exchange (MHC class I binding score, peptide exchange yield) equal to ″+++″ (≥50% = +++)

Note to self: Peptide exchange (MHC class I binding score, peptide exchange yield) recorded for 394 (LLAVIGGLVYL; listed as Homo sapiens) [compound 394] was ″+++″ (≥50% = +++)

// Peptide exchange (MHC class I binding score, peptide exchange yield) value for 370 (SLLQDLVSV; listed as Homo sapiens) [compound 370] : ″+++″ (≥50% = +++)

Recorded Peptide exchange (MHC class I binding score, peptide exchange yield) (substance 208 (KISPVTFSV; listed as Homo sapiens) [compound 208] ): ″+++″ (≥50% = +++)

Given item 201 (RLVDYLEGI; listed as Homo sapiens) [compound 201] , the value recorded as its Peptide exchange (MHC class I binding score, peptide exchange yield) is ″+++″ (≥50% = +++)

* * *

Molecular target: HLA-A*02:01 (Homo sapiens, UniProt P04439, D140Y/D185E/D98H/E176V/E277Q/G131W/G231S/I119V/I121R/I166T/I218V/L300P/L318F/N151K/N90K/P208A/P217A/Q86G/Q94H/R138H/R169H/T345S)
Test: MHC binding assay (UV-ligand exchange, ELISA, peptide exchange yield)
Settings: binding of HLA-class I restricted peptides to HLA-A*02:01
reported_property: Peptide exchange (MHC class I binding score, peptide exchange yield)

Examples with answers:
308 (SQYSGQLHEV; listed as Homo sapiens) [compound 308] = ″+++″ (≥50% = +++)
500 (SLMEDQVLQL; listed as Homo sapiens) [compound 500] = ″+++″ (≥50% = +++)
503 (SLNHFTHSV; listed as Homo sapiens) [compound 503] = ″+++″ (≥50% = +++)
589 (KLYPQLPAEI; listed as Homo sapiens) [compound 589] = ″+++″ (≥50% = +++)

// recorded Peptide exchange (MHC class I binding score, peptide exchange yield) for 52 (FLLAHGLGFLL; listed as Homo sapiens) [compound 52] : ″++++″ (≥75% = ++++)

// field: Peptide exchange (MHC class I binding score, peptide exchange yield); key: 477 (ALLPASGQIAL; listed as Homo sapiens) [compound 477] ; value = ″+++″ (≥50% = +++)

# substance 289 (VLLEIEDLQV; listed as Homo sapiens) [compound 289] ; its Peptide exchange (MHC class I binding score, peptide exchange yield) = ″++++″ (≥75% = ++++)

The recorded Peptide exchange (MHC class I binding score, peptide exchange yield) for entry 55 (SLLDLETLSL; listed as Homo sapiens) [compound 55] equals ″++++″ (≥75% = ++++)

* * *

Target: HLA-A*02:01 (Homo sapiens, UniProt P04439, D140Y/D185E/D98H/E176V/E277Q/G131W/G231S/I119V/I121R/I166T/I218V/L300P/L318F/N151K/N90K/P208A/P217A/Q86G/Q94H/R138H/R169H/T345S)
Assay: MHC binding assay (UV-ligand exchange, ELISA, peptide exchange yield)
Details: binding of HLA-class I restricted peptides to HLA-A*02:01
reported_property: Peptide exchange (MHC class I binding score, peptide exchange yield)

Known results for substances:
339 (GLWEIENNPTVKA; listed as Homo sapiens) [compound 339] = ″++++″ (≥75% = ++++)
446 (QLIPALAKV; listed as Homo sapiens) [compound 446] = ″+++″ (≥50% = +++)
191 (LLQEGQALEYV; listed as Homo sapiens) [compound 191] = ″++″ (≥20% = ++)
155 (RVANLHFPSV; listed as Homo sapiens) [compound 155] = ″+++″ (≥50% = +++)
236 (GLLEAKVSL; listed as Homo sapiens) [compound 236] = ″+++″ (≥50% = +++)

GET /value?item= 25 (FLPDEPYIKV; listed as Homo sapiens) [compound 25] &field=Peptide exchange (MHC class I binding score, peptide exchange yield) returns ″+++″ (≥50% = +++)

Value of measured Peptide exchange (MHC class I binding score, peptide exchange yield) for the entry 363 (KVLDVSDLESV; listed as Homo sapiens) [compound 363] : ″++″ (≥20% = ++)

Record summary for 19 (FMVDNEAIYDI; listed as Homo sapiens) [compound 19] : reported Peptide exchange (MHC class I binding score, peptide exchange yield) = ″++++″ (≥75% = ++++)

Data point: 32 (KLDDLTQDLTV; listed as Homo sapiens) [compound 32] ; Peptide exchange (MHC class I binding score, peptide exchange yield) = ″++″ (≥20% = ++)

* * *

Biological target: HLA-A*02:01 (Homo sapiens, UniProt P04439, D140Y/D185E/D98H/E176V/E277Q/G131W/G231S/I119V/I121R/I166T/I218V/L300P/L318F/N151K/N90K/P208A/P217A/Q86G/Q94H/R138H/R169H/T345S)
Assay: MHC binding assay (UV-ligand exchange, ELISA, peptide exchange yield)
Conditions: binding of HLA-class I restricted peptides to HLA-A*02:01
reported_property: Peptide exchange (MHC class I binding score, peptide exchange yield)

Some substances with known Peptide exchange (MHC class I binding score, peptide exchange yield) results, for comparison:
560 (ALWDIETGQQTTT; listed as Homo sapiens) [compound 560] = ″+++″ (≥50% = +++)
587 (VMNDRLYAI; listed as Homo sapiens) [compound 587] = ″+++″ (≥50% = +++)
246 (LLWEVVSQL; listed as Homo sapiens) [compound 246] = ″+++″ (≥50% = +++)
458 (SLIDKLYNI; listed as Homo sapiens) [compound 458] = ″++″ (≥20% = ++)
554 (LLMPSSEDLLL; listed as Homo sapiens) [compound 554] = ″+++″ (≥50% = +++)

The substance 171 (LLLPLQILL; listed as Homo sapiens) [compound 171] showed Peptide exchange (MHC class I binding score, peptide exchange yield) equal to ″+++″ (≥50% = +++)

In plain terms, 132 (LLVEQPPLAGV; listed as Homo sapiens) [compound 132] has a documented Peptide exchange (MHC class I binding score, peptide exchange yield) of ″+++″ (≥50% = +++)

# substance 28 (QLLDETSAITL; listed as Homo sapiens) [compound 28] ; its Peptide exchange (MHC class I binding score, peptide exchange yield) = ″+++″ (≥50% = +++)

Just so you know, measured Peptide exchange (MHC class I binding score, peptide exchange yield) for 490 (FLLQHVQEL; listed as Homo sapiens) [compound 490] came out at ″+++″ (≥50% = +++)

substance 29 (KMLGIPISNILMV; listed as Homo sapiens) [compound 29] , Peptide exchange (MHC class I binding score, peptide exchange yield) observed: ″+++″ (≥50% = +++)

Record 530 (VMYADIGGMDI; listed as Homo sapiens) [compound 530] . Reported Peptide exchange (MHC class I binding score, peptide exchange yield): ″+++″ (≥50% = +++)

Entry 476 (ALMERTGYSMV; listed as Homo sapiens) [compound 476] — recorded Peptide exchange (MHC class I binding score, peptide exchange yield) = ″+++″ (≥50% = +++)

# Peptide exchange (MHC class I binding score, peptide exchange yield) of 635 (SLDSTLHAV; listed as Homo sapiens) [compound 635] = ″+++″ (≥50% = +++)
